- EXPERIMENTAL SYSTEM: T1, GPR39 (G protein coupled receptor 39) (UniProt O43194 1-453, limits assumed)
- T1 sequence (looked up): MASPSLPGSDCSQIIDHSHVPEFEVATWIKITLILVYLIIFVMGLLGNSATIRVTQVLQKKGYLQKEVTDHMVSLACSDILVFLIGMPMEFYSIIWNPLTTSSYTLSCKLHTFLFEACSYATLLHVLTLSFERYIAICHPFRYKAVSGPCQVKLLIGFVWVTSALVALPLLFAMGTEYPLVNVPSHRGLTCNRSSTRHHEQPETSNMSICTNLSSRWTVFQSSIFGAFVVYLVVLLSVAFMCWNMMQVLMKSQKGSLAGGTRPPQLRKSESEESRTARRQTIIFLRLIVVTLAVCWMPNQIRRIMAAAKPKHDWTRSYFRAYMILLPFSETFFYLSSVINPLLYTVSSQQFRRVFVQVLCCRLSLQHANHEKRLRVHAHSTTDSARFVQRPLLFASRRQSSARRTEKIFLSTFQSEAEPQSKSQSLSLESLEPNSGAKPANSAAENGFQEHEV
- MEASUREMENT PROTOCOL: cell-based or functional assay
Square brackets hold non-standard residues; d marks the D form. Ends that are not written are not given here. * marks the point of attachment. Tyr(3-NH2) = Nc1cc(C[C@H](N)C(=O)O)ccc1O; dPhe(4-Me) = Cc1ccc(C[C@@H](N)C(=O)O)cc1; Trt = c1ccc(C(c2ccccc2)(c2ccccc2)*)cc1; Dmt = Cc1cc(O)cc(C)c1C[C@H](N)C(=O)O; Benzhydryl = c1ccc(C(c2ccccc2)*)cc1; Lauroyl = CCCCCCCCCCCC(=O)*; Octanoyl = CCCCCCCC(=O)*
Returns: string. Value is label 1 if measured EC50; SRE-luciferase reporter is below 600 nM, and label 0 if it is greater than or equal to it.

Here are 5 binders together with their reported answers.
H(Benzhydryl)K(Octanoyl)[dPhe(4-Me)]Y-NH2 [HKFY-66] | label 1
H(Trt)K(Octanoyl)FYQNQARF (also: C-terminal Phe amide in IUPAC name, not in sequence formula) [HKFY-43] | label 0
H(Trt)K(Lauroyl)FY-OH [HKFY-25] | label 0
H(Benzhydryl)K(Octanoyl)[dPhe(4-Me)][Tyr(3-NH2)]-OH [HKFY-70] | label 1
H(Trt)K(Octanoyl)FYSDQQARF (not fully specified; printed as His(trt)-Lys(caprylic)-Phe-Tyr-Ser-Asp-Gln-Gln-Ala-Arg-Phe) [HKFY-38] | label 0

Problem: Given H(Trt)K(Octanoyl)YF-OH [HKFY-47] , is recorded EC50; SRE-luciferase reporter strictly lower than 600 nM?
Solution: label 1

Problem: Try this binder too: H(Benzhydryl)K(Octanoyl)[dPhe(4-Me)][Dmt] [HKFY-36]
Solution: label 1

Problem: Try this binder too: [dH](Trt)K(Octanoyl)FY [HKFY-4]
Solution: label 1

Problem: Try this binder too: [dH](Trt)K(Octanoyl)[dPhe(4-Me)]Y [HKFY-31]
Solution: label 1

Problem: Try this binder too: H(Trt)K(Octanoyl)FYQNGARF (not fully specified (C-terminus)) [HKFY-41]
Solution: label 0

Problem: Try this binder too: Lys(Octanoyl)-Phe-Tyr [HKFY-54]
Solution: label 0

Problem: Try this binder too: H(2‑phenylethyl)K(Octanoyl)FY-OH (not fully specified) [HKFY-9]
Solution: label 0
